Test Method Notes: Tolerability in CD1 mice: kidney function, BUN, creatinine (Example 33)
Assay Context: plasma, 50 mg/kg s.c. twice a week, 4 weeks
Provide the reported BUN of each item.
Return type: number; implicit unit mg/dL.

# input Name the reported BUN value associated with the substance ISIS 416838: MOE gapmer, nucleobases 1018 to 1042 of SEQ ID NO: 1 (Table 6) (antisense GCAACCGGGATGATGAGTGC; MOE gapmer, wing and gap sizes not given here)
# output 38

# input Name the reported BUN value associated with the substance ISIS 417002: MOE gapmer, nucleobases 1275 to 1318 of SEQ ID NO: 1 (Table 8) (antisense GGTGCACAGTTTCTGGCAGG; MOE gapmer, wing and gap sizes not given here)
# output 23

# input Name the reported BUN value associated with the substance ISIS 416864: MOE gapmer, nucleobases 1275 to 1318 of SEQ ID NO: 1 (Table 8) (antisense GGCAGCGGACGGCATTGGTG; MOE gapmer, wing and gap sizes not given here)
# output 31

# input Name the reported BUN value associated with the substance ISIS 416850: MOE gapmer, nucleobases 1275 to 1318 of SEQ ID NO: 1 (Table 8) (antisense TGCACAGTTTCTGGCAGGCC; MOE gapmer, wing and gap sizes not given here)
# output 30

# input Name the reported BUN value associated with the substance ISIS 416858: MOE gapmer, nucleobases 1275 to 1318 of SEQ ID NO: 1 (Table 8) (antisense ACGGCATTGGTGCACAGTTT; MOE gapmer, wing and gap sizes not given here)
# output 29

* * *

Provide the reported reticulocytes of each item.
Test Method Notes: Hematology assays in cynomolgus monkeys (Example 45)
Format: in vivo
Assay Context: day 64
Method: Groups, each consisting of two male and three female monkeys, were injected subcutaneously with ISIS 416838, ISIS 416850, ISIS 416858, ISIS 416864, or ISIS 417002 in escalating doses. […] Body weights were measured weekly. […]
Return type: number; implicit unit %.

# input Name the reported reticulocytes value associated with the substance ISIS 416864: MOE gapmer, nucleobases 1275 to 1318 of SEQ ID NO: 1 (Table 8) (antisense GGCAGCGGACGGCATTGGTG; MOE gapmer, wing and gap sizes not given here)
# output 0.8

# input Name the reported reticulocytes value associated with the substance ISIS 416858: MOE gapmer, nucleobases 1275 to 1318 of SEQ ID NO: 1 (Table 8) (antisense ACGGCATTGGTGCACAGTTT; MOE gapmer, wing and gap sizes not given here)
# output 1.0

# input Name the reported reticulocytes value associated with the substance ISIS 416838: MOE gapmer, nucleobases 1018 to 1042 of SEQ ID NO: 1 (Table 6) (antisense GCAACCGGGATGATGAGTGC; MOE gapmer, wing and gap sizes not given here)
# output 1.3

* * *

Test Method Notes: Hematology assays in cynomolgus monkeys (Example 45)
Assay type: in vivo
Assay Context: day 8
Parameter Measured: platelet count (µL⁻¹)
Return type: number; implicit unit µL⁻¹.

# input Name the reported platelet count value associated with the substance ISIS 417002: MOE gapmer, nucleobases 1275 to 1318 of SEQ ID NO: 1 (Table 8) (antisense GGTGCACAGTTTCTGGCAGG; MOE gapmer, wing and gap sizes not given here)
# output 435000

# input Name the reported platelet count value associated with the substance ISIS 416864: MOE gapmer, nucleobases 1275 to 1318 of SEQ ID NO: 1 (Table 8) (antisense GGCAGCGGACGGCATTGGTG; MOE gapmer, wing and gap sizes not given here)
# output 438000

# input Name the reported platelet count value associated with the substance ISIS 416850: MOE gapmer, nucleobases 1275 to 1318 of SEQ ID NO: 1 (Table 8) (antisense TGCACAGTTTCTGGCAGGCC; MOE gapmer, wing and gap sizes not given here)
# output 548000

# input Name the reported platelet count value associated with the substance ISIS 416838: MOE gapmer, nucleobases 1018 to 1042 of SEQ ID NO: 1 (Table 6) (antisense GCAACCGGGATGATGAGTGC; MOE gapmer, wing and gap sizes not given here)
# output 387000

# input Name the reported platelet count value associated with the substance ISIS 416858: MOE gapmer, nucleobases 1275 to 1318 of SEQ ID NO: 1 (Table 8) (antisense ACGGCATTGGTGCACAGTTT; MOE gapmer, wing and gap sizes not given here)
# output 391000

* * *

Test Method Notes: Hematology assays in cynomolgus monkeys (Example 46)
Type: in vivo
Assay Context: Day 45
Strand notation (5' to 3'): a small letter for the sugar, then the base; units joined by * are phosphorothioate-linked, units joined directly phosphodiester-linked; [ ] holds rarer units or linkages, { } end groups; capitals alone tell only the bases. e = 2'-O-(2-methoxyethyl) (MOE); [5mC] = 5-methylcytosine; d = 2'-deoxy (DNA)
Parameter Measured: MCV (fL)
Return type: number; implicit unit fL.

# input Name the reported MCV value associated with the substance ISIS 449708: 3-8-3, 4-8-4, 2-10-2, 3-10-3 or 4-10-4 MOE microwalk gapmer (Table 46) (antisense eA*e[5mC]*eA*dG*dT*dT*dT*d[5mC]*dT*dG*dG*e[5mC]*eA*eG)
# output 74

# input Name the reported MCV value associated with the substance ISIS 445522: 5-8-5 or 6-8-6 MOE microwalk gapmer (Table 44) (antisense eG*e[5mC]*eA*e[5mC]*eA*dG*dT*dT*dT*d[5mC]*dT*dG*dG*e[5mC]*eA*eG*eG*e[5mC])
# output 73

# input Name the reported MCV value associated with the substance ISIS 416858: MOE gapmer, nucleobases 1275 to 1318 of SEQ ID NO: 1 (Table 8) (antisense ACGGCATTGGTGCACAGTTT; MOE gapmer, wing and gap sizes not given here)
# output 75

# input Name the reported MCV value associated with the substance ISIS 449707: 3-8-3, 4-8-4, 2-10-2, 3-10-3 or 4-10-4 MOE microwalk gapmer (Table 46) (antisense e[5mC]*eA*e[5mC]*eA*dG*dT*dT*dT*d[5mC]*dT*dG*dG*e[5mC]*eA*eG*eG)
# output 73

# input Name the reported MCV value associated with the substance ISIS 449711: 3-8-3, 4-8-4, 2-10-2, 3-10-3 or 4-10-4 MOE microwalk gapmer (Table 46) (antisense eA*e[5mC]*dA*dG*dT*dT*dT*d[5mC]*dT*dG*dG*d[5mC]*eA*eG)
# output 73

# input Name the reported MCV value associated with the substance ISIS 445531: 5-8-5 or 6-8-6 MOE microwalk gapmer (Table 44) (antisense eG*eG*e[5mC]*eA*eT*dT*dG*dG*dT*dG*d[5mC]*dA*d[5mC]*eA*eG*eT*eT*eT)
# output 75

# input Name the reported MCV value associated with the substance ISIS 449709: 3-8-3, 4-8-4, 2-10-2, 3-10-3 or 4-10-4 MOE microwalk gapmer (Table 46) (antisense eG*e[5mC]*eA*e[5mC]*dA*dG*dT*dT*dT*d[5mC]*dT*dG*dG*d[5mC]*eA*eG*eG*e[5mC])
# output 71

# input Name the reported MCV value associated with the substance ISIS 449710: 3-8-3, 4-8-4, 2-10-2, 3-10-3 or 4-10-4 MOE microwalk gapmer (Table 46) (antisense e[5mC]*eA*e[5mC]*dA*dG*dT*dT*dT*d[5mC]*dT*dG*dG*d[5mC]*eA*eG*eG)
# output 75

# input Name the reported MCV value associated with the substance ISIS 416850: MOE gapmer, nucleobases 1275 to 1318 of SEQ ID NO: 1 (Table 8) (antisense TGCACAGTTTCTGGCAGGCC; MOE gapmer, wing and gap sizes not given here)
# output 75

* * *

Test Method Notes: Tolerability in Sprague-Dawley rats: body weight and organ weight (Example 35)
Type: in vivo
Assay Context: 50 mg/kg s.c. twice per week for 6 weeks, percent change over the weights at the start of the study
Parameter Measured: Percent change: Body weight (%)
Return type: number; implicit unit %.

# input Name the reported Percent change: Body weight value associated with the substance 416838 (antisense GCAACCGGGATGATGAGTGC; 5-10-5 gapmer, further chemistry not given here) [compound 416838]
# output −23

# input Name the reported Percent change: Body weight value associated with the substance 416850 (antisense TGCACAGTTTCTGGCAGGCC; 5-10-5 gapmer, further chemistry not given here) [compound 416850]
# output −33

# input Name the reported Percent change: Body weight value associated with the substance 416999 (antisense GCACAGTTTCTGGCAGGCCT; 2-13-5 gapmer chemistry, further chemistry not given here) [compound 416999]
# output −37

# input Name the reported Percent change: Body weight value associated with the substance 416864 (antisense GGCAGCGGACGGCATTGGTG; 5-10-5 gapmer, further chemistry not given here) [compound 416864]
# output −24

# input Name the reported Percent change: Body weight value associated with the substance 416825 (antisense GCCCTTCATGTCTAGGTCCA; 5-10-5 gapmer, further chemistry not given here) [compound 416825]
# output −18

# input Name the reported Percent change: Body weight value associated with the substance 416826 (antisense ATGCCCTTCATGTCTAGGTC; 5-10-5 gapmer, further chemistry not given here) [compound 416826]
# output −40

# input Name the reported Percent change: Body weight value associated with the substance 416925 (antisense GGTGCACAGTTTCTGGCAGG; 3-14-3 gapmer chemistry, further chemistry not given here) [compound 416925]
# output −32

# input Name the reported Percent change: Body weight value associated with the substance 417002 (antisense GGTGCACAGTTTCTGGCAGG; 2-13-5 gapmer chemistry, further chemistry not given here) [compound 417002]
# output −29
